# System: Escherichia coli (ATCC 35210)
# experiment: Antibacterial microdilution (MIC/MBC)
# Assay type: cell-based
# measurement-setup: Escherichia coli, ATCC35210; E. coli; read-out: MIC
# Lookup of reported log10 MIC keyed by entry
Would you kindly interpret these values as log10 of MIC expressed in µg/mL?

molecule	test-result
COC(=O)c1[nH]c2ccccc2c1/C=C1\SC(=S)N(c2cccc(O)c2)C1=O	1.34
CC1(C)S[C@@H]2[C@H](NC(=O)[C@H](N)c3ccccc3)C(=O)N2[C@H]1C(=O)O [Ampicillin, reference compound]	2.00
COC(=O)c1[nH]c2ccc(F)cc2c1/C=C1\SC(=S)N(C(C(=O)O)C(C)C)C1=O (stereo not drawn)	0.90
COC(=O)c1[nH]c2ccccc2c1/C=C1\SC(=S)N(N2CCOCC2)C1=O	1.78
COC(=O)c1[nH]c2ccccc2c1/C=C1\SC(=S)N(Cc2ccco2)C1=O	1.48

query: Suppose we examine the molecule `COC(=O)c1[nH]c2ccccc2c1/C=C1\SC(=S)N(CCC(=O)O)C1=O` ; what log10 MIC value has been reported?
result: 1.65

query: Same read-out for `COC(=O)c1[nH]c2ccccc2c1/C=C1\SC(=S)N(CCCN2CCOCC2)C1=O` ?
result: 1.48

query: Same read-out for `COC(=O)c1[nH]c2ccccc2c1/C=C1\SC(=S)N(CC(=O)O)C1=O` ?
result: 1.18

query: Same read-out for `COC(=O)c1[nH]c2ccc(F)cc2c1/C=C1\SC(=S)N(CCCC(=O)O)C1=O` ?
result: 1.48

query: Same read-out for `COC(=O)c1[nH]c2ccc(F)cc2c1/C=C1\SC(=S)N(c2ccc(O)cc2)C1=O` ?
result: 1.48

query: Same read-out for `COC(=O)c1[nH]c2ccc(F)cc2c1/C=C1\SC(=S)N(C)C1=O` ?
result: 1.65
